Readings of MIC for the listed molecules
- System: Mycobacterium tuberculosis
- ASSAY REMARKS: In vitro antimycobacterial activity against thiacetazone resistant Mycobacterium tuberculosis strain
- Type: functional

Recorded MIC, per entry:
C/C(=N\NC(=O)c1ccncc1)c1cccc(/C(C)=N/NC(=O)c2ccncc2)n1: > 12.5 µg/mL
C/C(=N\NC(=O)c1ccncc1)C(F)(F)F: > 1.6 µg/mL

Turning now to a further molecule:
Reported Mycobacterium tuberculosis MIC for item O=C(N/N=C/c1ccc(C(F)(F)F)cc1)c1ccncc1 was > 1.6 µg/mL

====

- Test system: Mycobacterium tuberculosis
- ASSAY REMARKS: In vitro antimycobacterial activity against rifampin-resistant Mycobacterium tuberculosis strain
- Assay type: functional
Readings of MBC for the listed molecules
Enter your answer as a number in µg/mL; do not include the unit.

Input C/C=N/NC(=O)c1ccncc1 . Output MBC: 0.05

Input C/C(=N\NC(=O)c1ccncc1)C(F)(F)F . Output MBC: 0.2

Input N#CC[n+]1ccc(C(=O)NNCC(F)(F)F)cc1 . Output MBC: 6.25

Input O=C(N/N=C/c1ccc(C(F)(F)F)cc1)c1ccncc1 . Output MBC: 0.4

Input C/C(=N\NC(=O)c1ccncc1)c1cccc(/C(C)=N/NC(=O)c2ccncc2)n1 . Output MBC: 6.25
